Tested on: HCT-15 colon
Experiment: NCI-60 one-dose screen, 48 h
Settings: 10 µM unless noted
This is part of a sample that, as a whole, favours compounds with a hit. Of some 83,000 tested, about 20% had one in any assay. Active and inactive are the calls of the source. Rule for the calls: active = growth percent below 10; inactive = the rest. Where a SMILES comes first, the peptide text is derived from it. The star is where a group is joined. Trt = c1ccc(C(c2ccccc2)(c2ccccc2)*)cc1; Cbz = O=C(OCc1ccccc1)*
Pick one: y = active, n = inactive

Examples from the recorded data:
| molecule | category |
| --- | --- |
| Cc1ccc2c(ccc3c[n+]4c5ccccc5ccc4n32)c1 | n |
| N[C@H](C(=O)O)[C@@H]1CC(Cl)=NO1 | n |
| CCOC(=O)/C=C/c1ccc([N+](=O)[O-])o1 | y |
| COc1ccccc1/C=C\C(=O)c1ccccc1 | n |
| COC(=O)C(CSC(c1ccccc1)(c1ccccc1)c1ccccc1)NC(=O)C(CC(N)=O)NC(=O)OCc1ccccc1 (stereo not drawn) (Cbz-Asn-Cys(Trt)-OMe; configuration not given here) | n |
| CC(C)(C)CC(C)(C)c1ccc(OCCSC(=N)N)cc1 | y |
| Cc1ccnc(NC(c2ccccc2)c2ccc3cccnc3c2O)c1 (stereo not given) | n |
| O=C(/C=C\c1ccccc1)N1c2ccccc2CC1c1c[nH]c2ccccc12 (stereo not given) | n |
| NC(N)=N/N=C/c1ccc([N+](=O)[O-])o1 | n |
| CCOc1ccc(-c2nc3ccc(-c4nc5ccc(N6CCN(C)CC6)cc5[nH]4)cc3[nH]2)cc1 | n |

Outcome? CCCCCCCCCCCCCCCCN(CC)CC
y

Outcome? CC1(C)CC([P+](c2ccccc2)(c2ccccc2)c2ccccc2)=NN1
n

Outcome? Cn1c2c(c3ccccc31)CCN1C[C@@H]3CCCC[C@H]3C[C@@H]21
y

Outcome? Oc1c(Br)c(Br)c(O)c(Br)c1Br
n

Outcome? O=[N+]([O-])c1ccc(N=Nc2ccc(O)cc2O)cc1
n

Outcome? O=C1c2ccccc2C(=O)c2sc(Nc3ccc(Cl)cc3)nc21
y

Outcome? O=C(/C=C/C=C/c1ccccc1)c1ccco1
n

Outcome? O=C1C=CC(=O)N1C1c2ccccc2-c2ccccc21
n

Outcome? CCC(c1cccc(O)c1)C(CC)c1cccc(O)c1 (stereo not given)
n

Outcome? CNc1ccc2c(c1)c1ccccc1n2C
n

Outcome? CC1OC2CC(=O)OC2C2=C1C(=O)c1c(O)cccc1C2=O (stereo not given)
y

Outcome? CC(=Nc1ccc(N(C)C)cc1)c1ccccc1
n

Outcome? S=C(NCCNC(=S)[S][Sn]([c]1ccccc1)([c]1ccccc1)[c]1ccccc1)[S][Sn]([c]1ccccc1)([c]1ccccc1)[c]1ccccc1
y

Outcome? CC(=O)ON=C1C=CC(=C(C#N)c2ccccc2)C=C1
y

Outcome? CC(C)c1ccc2nc3ccc(C(=O)NCCN4CCN(c5ccccc5)CC4)cn3c(=O)c2c1
n

Outcome? Cc1cc(C(C)(CC(C)C)c2ccc(O)c(C)c2)ccc1O
n

----------
System: UACC-62 melanoma
Test: NCI-60 one-dose screen, 48 h
Conditions: 10 µM unless noted
About 83,000 compounds went through this panel and 20% of them were active in at least one assay; those are over-represented in the sample as a whole. Activity calls are given as the source filed them. The calls were made as follows: active = growth percent below 10; inactive = the rest.
Pick one: active, inactive

| molecule | category |
| --- | --- |
| CCN(CC)CCOc1ccc(-c2nc3cc(Cl)ccc3s2)cc1 | active |
| CCC1OC(OC)C=CC1=O (stereo not drawn) | inactive |
| NC(N)=N/N=C/c1ccc([N+](=O)[O-])o1 | inactive |
| CCCCCCCCCCCCCCCCN(CC)CC | active |
| C=C(Cl)C(=NC(C)(C)C)Nc1ccccc1C | inactive |
| COC(=O)c1nc(=S)[nH]c(C(=O)OC)c1C(=O)c1ccccn1 | inactive |
| N[C@H](C(=O)O)[C@@H]1CC(Cl)=NO1 | inactive |
| Oc1ccc(/C=N/NC(=S)Nc2ccccc2)nc1 | active |
| CCC(=O)Sc1ccccc1C(=O)Nc1ccc(Cl)cc1 | inactive |
| CCC(CCCN(CC)CCc1ccccc1)OC(=O)c1cc(OC)c(OC)c(OC)c1 (stereo not drawn) | inactive |

Outcome? C/C=C1\SC(=S)NC1=O
inactive

Outcome? CCOC(=O)/C=C/c1ccc([N+](=O)[O-])o1
inactive

Outcome? Cc1ccnc2c1ccc1c(C)ccnc12
active
